test: Apparent clearance in CD-1 mouse plasma at 5 mg/kg, ip measured up to 480 mins by LC/ESI-MS/MS analysis; assay type: ADME, organism-based
Value kind: CL/F (mL/min/kg)
Give just the numeric value; mL/min/kg need not be written.

Incoming: What value of measured CL/F is listed for `CN1CCN(Cc2ccc3oc4ccc(Cl)cc4c(=O)c3c2)CC1` ?
Outgoing: 226

Incoming: What value of measured CL/F is listed for `CCOC(=O)N1CCN(Cc2cccc3c(=O)c4ccc(OC)cc4oc23)CC1.Cl.Cl` ?
Outgoing: 165

Incoming: What value of measured CL/F is listed for `Cl.Cl.O=c1c2cc(Cl)ccc2oc2ccc(CN3CCN(CCOCCO)CC3)cc12` ?
Outgoing: 12.2

Incoming: What value of measured CL/F is listed for `Cl.Cl.O=c1c2ccccc2oc2c(CN3CCN(CCO)CC3)cccc12` ?
Outgoing: 386

---

target: Serotonin 2 (5-HT2) receptor (Rattus norvegicus) (UniProt P30994+P08909+P14842); test: Displacement of [3H]ketanserin from 5-HT2 receptor in Wistar rat brain cortex membrane at 10 uM after 40 mins by scintillation counting analysis relative to control; assay type: cell membranes
Sequence (P08909 whole entry, looked up): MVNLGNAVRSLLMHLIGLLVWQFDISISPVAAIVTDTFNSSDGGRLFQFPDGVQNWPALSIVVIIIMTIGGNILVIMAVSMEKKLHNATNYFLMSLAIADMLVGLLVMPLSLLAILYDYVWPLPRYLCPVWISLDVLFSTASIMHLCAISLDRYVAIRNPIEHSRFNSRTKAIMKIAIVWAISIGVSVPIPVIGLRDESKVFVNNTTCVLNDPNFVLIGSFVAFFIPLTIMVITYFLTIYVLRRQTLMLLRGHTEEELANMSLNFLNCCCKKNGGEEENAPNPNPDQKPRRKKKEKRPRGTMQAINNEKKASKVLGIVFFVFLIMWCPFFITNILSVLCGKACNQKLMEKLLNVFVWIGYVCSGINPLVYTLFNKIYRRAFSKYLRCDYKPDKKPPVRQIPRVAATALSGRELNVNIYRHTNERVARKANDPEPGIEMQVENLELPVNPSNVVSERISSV
Sequence (P14842 whole entry, looked up): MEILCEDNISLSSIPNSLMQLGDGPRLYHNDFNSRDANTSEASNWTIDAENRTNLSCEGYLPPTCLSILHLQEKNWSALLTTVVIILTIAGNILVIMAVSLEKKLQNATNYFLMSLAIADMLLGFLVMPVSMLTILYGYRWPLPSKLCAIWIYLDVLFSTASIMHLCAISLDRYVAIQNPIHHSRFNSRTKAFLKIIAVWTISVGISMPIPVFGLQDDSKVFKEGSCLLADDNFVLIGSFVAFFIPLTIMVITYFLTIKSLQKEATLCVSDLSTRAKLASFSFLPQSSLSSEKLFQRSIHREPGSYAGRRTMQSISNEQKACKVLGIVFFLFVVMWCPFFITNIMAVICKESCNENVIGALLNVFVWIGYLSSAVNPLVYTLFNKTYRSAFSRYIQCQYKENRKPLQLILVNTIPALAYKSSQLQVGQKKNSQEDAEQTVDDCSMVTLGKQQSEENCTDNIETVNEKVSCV
Sequence (P30994 whole entry, looked up): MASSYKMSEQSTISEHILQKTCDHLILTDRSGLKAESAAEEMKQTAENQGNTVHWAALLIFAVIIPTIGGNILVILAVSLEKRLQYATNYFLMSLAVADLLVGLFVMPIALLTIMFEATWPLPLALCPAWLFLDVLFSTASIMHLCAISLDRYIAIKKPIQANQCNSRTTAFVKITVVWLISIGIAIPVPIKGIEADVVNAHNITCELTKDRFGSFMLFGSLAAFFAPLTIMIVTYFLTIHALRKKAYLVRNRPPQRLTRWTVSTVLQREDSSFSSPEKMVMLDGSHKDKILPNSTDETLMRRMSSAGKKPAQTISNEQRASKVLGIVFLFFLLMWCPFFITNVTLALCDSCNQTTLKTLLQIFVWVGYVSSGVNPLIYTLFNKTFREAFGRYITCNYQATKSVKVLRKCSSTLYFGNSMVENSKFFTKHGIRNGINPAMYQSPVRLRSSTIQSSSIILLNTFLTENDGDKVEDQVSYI
Value kind: inhibition

Incoming: What value of measured inhibition is listed for `COc1ccc2c(=O)c3cccc(CN4CCN(c5ccccc5)CC4)c3oc2c1` ?
Outgoing: 91%

Incoming: What value of measured inhibition is listed for `O=c1c2ccc(Cl)cc2oc2c(CN3CCN(c4ccccc4)CC3)cccc12` ?
Outgoing: 75%

Incoming: What value of measured inhibition is listed for `O=c1c2ccccc2oc2c(CN3CCN(c4ccccc4)CC3)cccc12` ?
Outgoing: 88%

Incoming: What value of measured inhibition is listed for `COc1ccc(OCCCN2CCN(Cc3ccc4oc5cc(OC)ccc5c(=O)c4c3)CC2)cc1` ?
Outgoing: 75%

Incoming: What value of measured inhibition is listed for `COc1ccc(OCCCN2CCN(Cc3cccc4c(=O)c5ccc(OC)cc5oc34)CC2)cc1` ?
Outgoing: 38%

Incoming: What value of measured inhibition is listed for `CCOC(=O)N1CCN(Cc2cccc3c(=O)c4ccc(OC)cc4oc23)CC1.Cl.Cl` ?
Outgoing: 22%

Incoming: What value of measured inhibition is listed for `COc1ccccc1N1CCN(Cc2cccc3c(=O)c4ccccc4oc23)CC1` ?
Outgoing: 70%

Incoming: What value of measured inhibition is listed for `COc1ccc2c(=O)c3cccc(CN4CCN(Cc5ccccc5)CC4)c3oc2c1` ?
Outgoing: 41%

Incoming: What value of measured inhibition is listed for `O=c1c2cc(Cl)ccc2oc2ccc(CN3CCN(CCO)CC3)cc12` ?
Outgoing: 43%

Incoming: What value of measured inhibition is listed for `Cl.Cl.O=c1c2cc(Cl)ccc2oc2ccc(CN3CCN(CCOCCO)CC3)cc12` ?
Outgoing: 47%

Incoming: What value of measured inhibition is listed for `Cl.Cl.O=c1c2ccccc2oc2c(CN3CCN(CCO)CC3)cccc12` ?
Outgoing: 0%

Incoming: What value of measured inhibition is listed for `CN1CCN(Cc2ccc3oc4ccc(Cl)cc4c(=O)c3c2)CC1` ?
Outgoing: 50%

Incoming: What value of measured inhibition is listed for `O=c1c2ccc(Cl)cc2oc2ccc(CN3CCN(CCO)CC3)cc12` ?
Outgoing: 39%

Incoming: What value of measured inhibition is listed for `CCOC(=O)N1CCN(Cc2cccc3c(=O)c4ccccc4oc23)CC1` ?
Outgoing: 3%

---

assay: MRT in CD-1 mouse brain at 5 mg/kg, ip measured up to 480 mins by LC/ESI-MS/MS analysis; type: ADME, organism-based
Consider the following compounds; for each one, report its MRT.
Give just the numeric value; h need not be written.

Incoming: What value of measured MRT is listed for `Cl.Cl.O=c1c2cc(Cl)ccc2oc2ccc(CN3CCN(CCOCCO)CC3)cc12` ?
Outgoing: 2.58

Incoming: What value of measured MRT is listed for `CCOC(=O)N1CCN(Cc2cccc3c(=O)c4ccc(OC)cc4oc23)CC1.Cl.Cl` ?
Outgoing: 1.24

Incoming: What value of measured MRT is listed for `CN1CCN(Cc2ccc3oc4ccc(Cl)cc4c(=O)c3c2)CC1` ?
Outgoing: 2.53

Incoming: What value of measured MRT is listed for `Cl.Cl.O=c1c2ccccc2oc2c(CN3CCN(CCO)CC3)cccc12` ?
Outgoing: 0.402

---

Consider the following molecules; for each one, report its pKi.
molecular target: 5-hydroxytryptamine receptor 2A (Homo sapiens, UniProt P28223); experiment: Displacement of [3H]-ketanserin from human 5-HT2A receptor expressed in CHO-K1 cell membranes after 60 mins by microbeta scintillation counting analysis
Sequence (P28223 whole entry): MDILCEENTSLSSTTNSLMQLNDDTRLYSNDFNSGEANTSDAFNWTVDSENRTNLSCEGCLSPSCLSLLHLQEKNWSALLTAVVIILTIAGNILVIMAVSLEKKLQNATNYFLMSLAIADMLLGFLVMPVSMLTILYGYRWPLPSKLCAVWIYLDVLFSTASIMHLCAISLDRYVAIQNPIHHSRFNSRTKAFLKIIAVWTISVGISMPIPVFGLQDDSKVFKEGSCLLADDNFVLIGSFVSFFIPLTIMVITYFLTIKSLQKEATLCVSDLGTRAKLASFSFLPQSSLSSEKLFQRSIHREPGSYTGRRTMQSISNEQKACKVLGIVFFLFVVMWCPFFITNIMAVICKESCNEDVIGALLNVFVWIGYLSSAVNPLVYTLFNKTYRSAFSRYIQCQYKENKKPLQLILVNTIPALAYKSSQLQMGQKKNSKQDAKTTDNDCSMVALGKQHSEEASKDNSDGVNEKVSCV
The meaning of pKi here: minus log10 of the concentration in molar units.

Incoming: What value of measured pKi is listed for `COc1ccc2c(=O)c3cccc(CN4CCN(c5ccccc5OC)CC4)c3oc2c1.Cl` ?
Outgoing: 5.66

Incoming: What value of measured pKi is listed for `COc1ccc2c(=O)c3cc(CN4CCN(c5ccccc5OC)CC4)ccc3oc2c1.Cl` ?
Outgoing: 6.25

---

assay: Drug metabolism in mouse liver microsomes assessed as metabolite formation by measuring retention time at 20 uM after 30 to 60 mins in presence of NADP by UPLC/MS analysis; format: ADME, Microsome
Value kind: Retention_time (min)
Give just the numeric value; min need not be written.

Incoming: What value of measured Retention_time is listed for `CCOC(=O)N1CCN(Cc2cccc3c(=O)c4ccc(OC)cc4oc23)CC1.Cl.Cl` ?
Outgoing: 4.12

Incoming: What value of measured Retention_time is listed for `Cl.Cl.O=c1c2ccccc2oc2c(CN3CCN(CCO)CC3)cccc12` ?
Outgoing: 3.05

Incoming: What value of measured Retention_time is listed for `Cl.Cl.O=c1c2cc(Cl)ccc2oc2ccc(CN3CCN(CCOCCO)CC3)cc12` ?
Outgoing: 4.49

Incoming: What value of measured Retention_time is listed for `CN1CCN(Cc2ccc3oc4ccc(Cl)cc4c(=O)c3c2)CC1` ?
Outgoing: 4.64

---

assay: Cmax in CD-1 mouse plasma at 5 mg/kg, ip measured up to 480 mins by LC/ESI-MS/MS analysis; type: ADME, organism-based; parameters: dose 5 mg/kg, route intraperitoneal
Value kind: Cmax (ng/mL)
Give just the numeric value; ng/mL need not be written.

Incoming: What value of measured Cmax is listed for `Cl.Cl.O=c1c2cc(Cl)ccc2oc2ccc(CN3CCN(CCOCCO)CC3)cc12` ?
Outgoing: 1920

Incoming: What value of measured Cmax is listed for `CCOC(=O)N1CCN(Cc2cccc3c(=O)c4ccc(OC)cc4oc23)CC1.Cl.Cl` ?
Outgoing: 468

Incoming: What value of measured Cmax is listed for `Cl.Cl.O=c1c2ccccc2oc2c(CN3CCN(CCO)CC3)cccc12` ?
Outgoing: 462

Incoming: What value of measured Cmax is listed for `CN1CCN(Cc2ccc3oc4ccc(Cl)cc4c(=O)c3c2)CC1` ?
Outgoing: 136

---

Consider the following compounds; for each one, report its Kp at 8 h.
assay: Ratio of drug uptake in CD-1 mouse brain to plasma at 5 mg/kg, ip measured up to 480 mins by LC/ESI-MS/MS analysis; type: ADME, organism-based; details: read-out: BPR
Please give only the number in your answer, with no unit.

Incoming: What value of measured Kp at 8 h is listed for `Cl.Cl.O=c1c2ccccc2oc2c(CN3CCN(CCO)CC3)cccc12` ?
Outgoing: 4.85

Incoming: What value of measured Kp at 8 h is listed for `CN1CCN(Cc2ccc3oc4ccc(Cl)cc4c(=O)c3c2)CC1` ?
Outgoing: 31.6

Incoming: What value of measured Kp at 8 h is listed for `CCOC(=O)N1CCN(Cc2cccc3c(=O)c4ccc(OC)cc4oc23)CC1.Cl.Cl` ?
Outgoing: 2.86

Incoming: What value of measured Kp at 8 h is listed for `Cl.Cl.O=c1c2cc(Cl)ccc2oc2ccc(CN3CCN(CCOCCO)CC3)cc12` ?
Outgoing: 9.79
